- System: Herpes virus of type I
- procedure_text: Protection of Vero cells from Herpes virus of type I
- Format: cell-based
- recorded_conditions: compound 100 mg/l
measurement_type: percentage of protection of cells from virus (%)
Please give a number only; it is taken to be in %.

> print(dat)
                                   compound            study.system  endpoint.value
1  CN(C)c1nc(=S)[nH]c2c1C(c1ccc([N+](=O)[O-])cc1)c1c(O)nc(=S)[nH]c1O2 (stereo not drawn)  Herpes virus of type I              80
2  Nc1nc(=S)[nH]c2c1C(c1ccc([N+](=O)[O-])cc1)c1c(N)nc(=S)[nH]c1O2  Herpes virus of type I              90
3  Oc1nc(=S)[nH]c2c1C(c1ccccc1)c1c(Cl)nc(=S)[nH]c1O2 (stereo not drawn)  Herpes virus of type I              90

percentage of protection of cells from virus in this record for "O=[N+]([O-])c1ccc(C2c3c(O)nc(=S)[nH]c3Oc3[nH]c(=S)nc(O)c32)cc1" : 50

percentage of protection of cells from virus in this record for Nc1nc(=S)[nH]c2c1C(c1ccc([N+](=O)[O-])cc1)c1c(O)nc(=S)[nH]c1O2 (stereo not drawn) : 100

====

- System: Chlamydia trachomatis D323
- procedure_text: Protection of cell culture from Chlamydia trachomatis (immunofluorescence, cytoplasmatic inclusions)
- Assay type: cell-based
- recorded_conditions: compound 30 mg/l
- Excerpt: The antiviral activity of the claimed compounds were also all tested against the Chlemydia trachomatis. The effects of the claimed compounds on the Chlamydia trachomatis are charted in TABLE 4. A relative strain of Chlamydia trachomatis D323 was used to test the claimed compounds. […] The number of unchanged cells in 100 visual fields were counted utilizing a special net on a microscopic eyepiece.
measurement_type: Percentage of cells' defense from C. trachomatis

Examples with their reported Percentage of cells' defense from C. trachomatis follow.
> print(dat)
                                   molecule  endpoint.value
1  CN(C)c1nc(=S)[nH]c2c1C(c1ccc([N+](=O)[O-])cc1)c1c(O)nc(=S)[nH]c1O2 (stereo not shown)             50%
2  Nc1nc(=S)[nH]c2c1C(c1ccc([N+](=O)[O-])cc1)c1c(Cl)nc(=S)[nH]c1O2 (stereo not shown)             50%
3  O=[N+]([O-])c1ccc(C2c3c(O)nc(=S)[nH]c3Oc3[nH]c(=S)nc(O)c32)cc1             40%

Percentage of cells' defense from C. trachomatis in this record for "O=[N+]([O-])c1ccc(C2c3c(Cl)nc(=S)[nH]c3Oc3[nH]c(=S)nc(Cl)c32)cc1" : 70%

Percentage of cells' defense from C. trachomatis in this record for "Nc1nc(=S)[nH]c2c1C(c1ccc([N+](=O)[O-])cc1)c1c(N)nc(=S)[nH]c1N2" : 50%

Percentage of cells' defense from C. trachomatis in this record for CNc1nc(=S)[nH]c2c1C(c1ccc([N+](=O)[O-])cc1)c1c(O)nc(=S)[nH]c1O2 (stereo not shown) : 70%

Percentage of cells' defense from C. trachomatis in this record for "Nc1nc(=S)[nH]c2c1C(c1ccc([N+](=O)[O-])cc1)c1c(N)nc(=S)[nH]c1O2" : 50%
